meta.source: patent US20260028340A1

Assay: Pharmacokinetic data in CD-1 mice after oral administration
Type: in vivo
Conditions: mouse, 10 mg/kg molar equivalent to Cmpd. A (nominal), serum, analyte: dosed derivative (DV)
Output condition met for records whose Cmax is lower than 80 ng/mL, condition not met for records at or above 80 ng/mL.

Example entries begin here.
CC(C)=CCC/C(C)=C/CC/C(C)=C/COC1(c2ccc(Cl)cc2)c2ccccc2C2=NCCN21 (stereo not drawn); condition not met
CC(C)=CCC/C(C)=C/COC1(c2ccc(Cl)cc2)c2ccccc2C2=NCCN21 (stereo not drawn); condition met
CC(C)C(NC(=O)OC(C)(C)C)C(=O)N1CCN=C1c1ccccc1C(=O)c1ccc(Cl)cc1 (stereo not drawn); condition met
CC(C)=CCOC1(c2ccc(Cl)cc2)c2ccccc2C2=NCCN21 (stereo not drawn); condition not met

API: the following record is the query input.
Report whether reported Cmax is lower than 80 ng/mL (strictly) for COC1(c2ccc(Cl)cc2)c2ccccc2C2=NCCN21 (stereo not drawn)
condition met
